experimental_target: PRMT3 (Homo sapiens, UniProt O60678)
Sequence (O60678 211-531): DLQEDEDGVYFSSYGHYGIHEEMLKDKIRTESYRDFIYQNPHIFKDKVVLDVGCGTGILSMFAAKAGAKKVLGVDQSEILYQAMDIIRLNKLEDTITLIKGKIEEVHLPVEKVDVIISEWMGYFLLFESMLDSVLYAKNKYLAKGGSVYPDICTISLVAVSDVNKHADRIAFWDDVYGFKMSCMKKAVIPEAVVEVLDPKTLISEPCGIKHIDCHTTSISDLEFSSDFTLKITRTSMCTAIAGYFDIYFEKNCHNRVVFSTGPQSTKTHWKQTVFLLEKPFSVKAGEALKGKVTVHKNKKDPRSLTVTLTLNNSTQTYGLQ
assay_comment: SAHH-coupled fluorescence assay, inhibition of PRMT3
Assay type: biochemical
Set-up: PRMT3 (residues 211-531) was cloned into the pET28a-MHL expression vector; tag of the pET28a-MHL vector (not described); made in house; host or cells: Escherichia coli BL21(DE3)
assay_endpoint: inhibition at 10 µM (%)

Sample records with inhibition at 10 µM:
{"compound": "Nc1ncnc2c1ncn2[C@@H]1O[C@H](CSCCNC(=O)NCCCc2ccccc2)[C@@H](O)[C@H]1O [Compound 7b]", "assay_endpoint": "inhibition at 10 µM", "unit_text": "%", "recorded_result": 5}
{"compound": "N=C(NCCCSC[C@H]1O[C@@H](n2cnc3c(N)ncnc32)[C@H](O)[C@@H]1O)Nc1cccc(-c2ccc3c(c2)OCCO3)c1 [Compound 6g]", "assay_endpoint": "inhibition at 10 µM", "unit_text": "%", "recorded_result": 64}

(1) N=C(NCCCSC[C@H]1O[C@@H](n2cnc3c(NCCCc4ccccc4)ncnc32)[C@H](O)[C@@H]1O)NCCCc1ccccc1 [Compound 19m]
(2) COc1cc2nc(-c3ccc(O)cc3)nc(NCCSC[C@H]3O[C@@H](n4cnc5c(N)ncnc54)[C@H](O)[C@@H]3O)c2cc1OC [Compound 12b]
(3) Nc1ncnc2c1ncn2[C@@H]1O[C@H](CSCCNC(=O)NCc2ccccc2Br)[C@@H](O)[C@H]1O [Compound 7h]
(4) N=C(NCCCSC[C@H]1O[C@@H](n2cnc3c(N)ncnc32)[C@H](O)[C@@H]1O)Nc1cccc(-c2ccc(O)cc2)c1 [Compound 6e]
Order the entries by their reported inhibition at 10 µM, beginning at the minimum. Write the labels, ordered according to the request.
1, 2, 3, 4
(1: 5%, 2: 13%, 3: 25%, 4: 47%)
